- assay: activity coefficient (dimensionless); of the first substance listed, at infinite dilution; xn = mol fraction of the nth substance listed
- experimental_context: 368.15 K; 101 kPa; Liquid; Chromatography; x1 = 0
Exercise: state measured activity coefficient for each of the molecules provided.

(Q) Respond only with activity coefficient recorded for C=CCCCCCC [oct-1-ene] + CCCC[n+]1cccc(C)c1.N#C[N-]C#N
(A) 35.7

(Q) Please indicate activity coefficient recorded for CCOCC [diethyl ether] + CCCC[n+]1cccc(C)c1.N#C[N-]C#N
(A) 6.15

(Q) Return activity coefficient for the following molecule: O [water] + CCCC[n+]1cccc(C)c1.N#C[N-]C#N
(A) 0.314

(Q) Answer with the recorded activity coefficient for the molecule listed here: C1CCCCC1 [cyclohexane] + CCCC[n+]1cccc(C)c1.N#C[N-]C#N
(A) 15.6

(Q) Name the recorded activity coefficient of the molecule listed here: C#CCCCCCC [1-octyne] + CCCC[n+]1cccc(C)c1.N#C[N-]C#N
(A) 9.75

(Q) Dear colleague, please send me the reported activity coefficient for C=CCCCCC [1-heptene] + CCCC[n+]1cccc(C)c1.N#C[N-]C#N when you can.
(A) 24.8

(Q) Output activity coefficient of C=C(C)c1ccccc1 [(1-methylethenyl)benzene] + CCCC[n+]1cccc(C)c1.N#C[N-]C#N
(A) 2.55

(Q) Tell us which activity coefficient value is on record for CCCCCC [hexane] + CCCC[n+]1cccc(C)c1.N#C[N-]C#N
(A) 36

(Q) Look up activity coefficient of CC(C)CC(C)(C)C [2,2,4-trimethylpentane] + CCCC[n+]1cccc(C)c1.N#C[N-]C#N and report it.
(A) 61.7

(Q) Report activity coefficient, nothing else, for this molecule: Cc1ccc(C)cc1 [1,4-dimethylbenzene] + CCCC[n+]1cccc(C)c1.N#C[N-]C#N
(A) 3.17

(Q) Provide only the value of recorded activity coefficient for CC#N [acetonitrile] + CCCC[n+]1cccc(C)c1.N#C[N-]C#N
(A) 0.764

(Q) Specify activity coefficient for CCCC(=O)CC [3-hexanone] + CCCC[n+]1cccc(C)c1.N#C[N-]C#N and stop.
(A) 2.89

(Q) Note activity coefficient for the molecule shown: CCC(C)CC [3-methylpentane] + CCCC[n+]1cccc(C)c1.N#C[N-]C#N
(A) 32.4

(Q) # return recorded activity coefficient for input C1COCCO1 [1,4-dioxane] + CCCC[n+]1cccc(C)c1.N#C[N-]C#N
(A) 1.11

(Q) Answer with reported activity coefficient of Cc1ccccc1 [toluene] + CCCC[n+]1cccc(C)c1.N#C[N-]C#N
(A) 2.2

(Q) Could you please provide reported activity coefficient for C1=CCCCC1 [cyclohexene] + CCCC[n+]1cccc(C)c1.N#C[N-]C#N ? Thanks!
(A) 7.54

(Q) Supply activity coefficient value. Item: C=CCCCC [hex-1-ene] + CCCC[n+]1cccc(C)c1.N#C[N-]C#N
(A) 17.1

(Q) For the molecule COC(C)(C)C [2-methoxy-2-methylpropane] + CCCC[n+]1cccc(C)c1.N#C[N-]C#N , report activity coefficient.
(A) 6.8

(Q) Give me measured activity coefficient, please, for this molecule: C=CCCC [1-pentene] + CCCC[n+]1cccc(C)c1.N#C[N-]C#N
(A) 12.2

(Q) Look up activity coefficient of O=C1CCCCC1 [cyclohexanone] + CCCC[n+]1cccc(C)c1.N#C[N-]C#N and report it.
(A) 1.01

(Q) Read off the recorded activity coefficient for CCCCC(C)=O [2-hexanone] + CCCC[n+]1cccc(C)c1.N#C[N-]C#N
(A) 2.63

(Q) Output activity coefficient of C#CCCC [1-pentyne] + CCCC[n+]1cccc(C)c1.N#C[N-]C#N
(A) 3.35

(Q) Return reported activity coefficient. Input molecule: C1CCCCCC1 [cycloheptane] + CCCC[n+]1cccc(C)c1.N#C[N-]C#N
(A) 18.5

(Q) Let me know recorded activity coefficient for C1CCCCCCC1 [cyclooctane] + CCCC[n+]1cccc(C)c1.N#C[N-]C#N , thanks.
(A) 22.7

(Q) Specify activity coefficient for c1ccsc1 [thiophene] + CCCC[n+]1cccc(C)c1.N#C[N-]C#N and stop.
(A) 0.955

(Q) Please give the documented activity coefficient of CCCCCCC [heptane] + CCCC[n+]1cccc(C)c1.N#C[N-]C#N
(A) 51.7

(Q) Identify measured activity coefficient corresponding to CCCO [propan-1-ol] + CCCC[n+]1cccc(C)c1.N#C[N-]C#N
(A) 0.638

(Q) Check the records and state activity coefficient for CCC(=O)CC [pentan-3-one] + CCCC[n+]1cccc(C)c1.N#C[N-]C#N
(A) 2.01

====

- assay: activity coefficient (dimensionless); of the first substance listed, at infinite dilution; xn = mol fraction of the nth substance listed
- experimental_context: 328.15 K; 101 kPa; Liquid; Chromatography; x1 = 0
What activity coefficient was measured for each of the following?
In your answer, state the number alone without any accompanying words.

(Q) Given the compound C=CCCC [1-pentene] + CCCC[n+]1cccc(C)c1.N#C[N-]C#N , write its reported activity coefficient.
(A) 14.1

(Q) Return the recorded activity coefficient value; entry: COC(C)(C)C [2-methoxy-2-methylpropane] + CCCC[n+]1cccc(C)c1.N#C[N-]C#N
(A) 6.78

(Q) Provide activity coefficient value for the following compound: Cc1ccccc1 [toluene] + CCCC[n+]1cccc(C)c1.N#C[N-]C#N
(A) 2.01
